Measured cell viability by item
test system: NOMO1; test: cell viability relative to DMSO control; higher = less cytotoxic; settings: RPMI 5 mM glucose + 10% FBS; 48 h; 15.4 µM
measure-name: cell viability (%)

* CO/N=C(\C(=O)N[C@@H]1C(=O)N2C(C(=O)OCOC(=O)C(C)(C)C)=C(/C=C\c3scnc3C)CS[C@H]12)c1csc(N)n1 | 84.6
* COc1cccc2c1CCCC2CCCN1CCN(C2CCCCC2)CC1 (stereo not drawn) | 89.7
* COc1cc(C)c(Sc2cnc(NC(=O)c3ccc(CNC(C)C(C)C)cc3)s2)cc1C(=O)N1CCN(C(C)=O)CC1 (stereo not drawn) | 107
* CC(C)Oc1ccc(C(=O)N[C@H](CNC(=O)CN(C)C)Cc2ccc(-c3cn4cccc([C@H](C)O)c4n3)cc2)cc1Cl | 14.6
* COC1=CC=C2CN(C)CC[C@@]34\C=C/[C@H](O)C[C@@H]3OC1=C24 | 108
* CON(C)C(=O)N1/N=C(S[C@@]1(CCCN)C2=CC=CC=C2)/C3=CC(=CC=C3F)F | 25.3
* N#C/N=C(\NCCCCCCOc1ccc(Cl)cc1)Nc1ccncc1 | 8.91
* CO/N=C(/C(=O)N[C@@H]1C(=O)N2C(C(=O)O)=C(CSC(=O)c3ccco3)CS[C@H]12)c1csc(N)n1 | 73.8

====

Measured cell viability by item
tested on: NOMO1; assay: cell viability relative to DMSO control; higher = less cytotoxic; details: RPMI 5 mM glucose + 10% FBS; 48 h; 5.12 µM
measure-name: cell viability (%)

• O.O.CCN1CCN(C(=O)N[C@H](C(=O)N[C@H]2[C@@H]3SC\C(=C(/N3C2=O)C(O)=O)CSC4=NN=N[N]4C)C5=CC=C(O)C=C5)C(=O)C1=O = 101
• NC(=O)NO = 37.3
• Cn1cc(C[C@@H](N)C(=O)O)c2ccccc21 = 92.6
• O=C1NC(=O)/C(=C/c2ccc(-c3ccc(F)cc3O)o2)S1 = 95.7
• CCN(c1ccccc1)c1cc(NC)[n+](C)c(C)n1 = 112
• Cc1c[nH]c(-c2cnc(NCCNc3ccc(C#N)cn3)nc2-c2ccc(Cl)cc2Cl)n1 = 76.5
• COc1cc(N2CCC(N(C)C)CC2)ccc1Nc1ncc(Cl)c(Nc2ccccc2P(C)(C)=O)n1 = 21.3
• CC(C)(O)/C=C\C(=O)[C@](C)(O)[C@H]1[C@H](O)C[C@]2(C)[C@@H]3CC=C4[C@@H](C=C(O)C(=O)C4(C)C)[C@]3(C)C(=O)C[C@@]12C = 16.1
• N=C1N[C@H]2[C@H](CS[C@H]2CCCCC(=O)O)N1 = 112
• CCOc1ccc(Cc2cc([C@@H]3O[C@H](CO)[C@@H](O)[C@H](O)[C@H]3O)ccc2Cl)cc1 = 124
• CO/N=C(\C(=O)N[C@@H]1C(=O)N2C(C(=O)OCOC(=O)C(C)(C)C)=C(/C=C\c3scnc3C)CS[C@H]12)c1csc(N)n1 = 95
• C#CCN[C@@H]1CCc2ccccc21.CS(=O)(=O)O = 84.2
• COc1cccc2c1CCCC2CCCN1CCN(C2CCCCC2)CC1 (stereo not drawn) = 96.2
• COc1cc(CNC(=O)CCCC/C=C/C(C)C)ccc1O = 36.6
• OC1=CC2=C(C(=C1)O)C(=O)\C(=C(/O2)C3=CC(=C(O)C=C3)O)O = 95.4
• CN(C)CCN1C(=O)c2cccc3cc(N)cc(c23)C1=O = 105
• Cc1cccc(/C=N/Nc2cc(N3CCOCC3)nc(OCCc3ccccn3)n2)c1 = 19.3
• C[C@@H](O)[C@@H]1NC(=O)[C@H](CCCCN)NC(=O)[C@@H](Cc2c[nH]c3ccccc23)NC(=O)[C@H](Cc2ccccc2)NC(=O)[C@@H](NC(=O)[C@H](N)Cc2ccccc2)CSSC[C@@H](C(=O)N[C@H](CO)[C@@H](C)O)NC1=O = 80.7
